B1: SMTNL2 (parent)
chain: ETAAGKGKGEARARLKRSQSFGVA

Variants of: B1
EXPERIMENT_DESCRIPTION: protein stability index of a GFP-peptide fusion (GPS, HEK-293T) (PSI 1-6); higher = more stable;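 also: lentivirally expressed fusions sorted by FACS into six bins by GFP to DsRed ratio, PSI derived from sequencing read proportions per bin multiplied by bin number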
ASSAY_CONDITIONS: c terminus: a fixed tail appended
The threshold is inclusive: protein stability index of exactly 4 counts as label 1; values below receive label 0.

Prompt: Is reported protein stability index greater than or equal to 4 here: V23S
Completion: label 1

Prompt: Thanks! And T2P ?
Completion: label 1

Prompt: Continue with A3W
Completion: label 1

Prompt: Thanks! And E10M ?
Completion: label 1

Prompt: Lookup S18I
Completion: label 0

Prompt: Field entry: Q19F
Completion: label 0

Prompt: What do you get for K8H ?
Completion: label 1

Prompt: Same thing, different variant: K16G
Completion: label 1

Prompt: Another variant to check: A13I
Completion: label 1

Prompt: // repeat for S18Q and report
Completion: label 1

Prompt: Continue with K8E
Completion: label 1

Prompt: What about K16T ?
Completion: label 1

Prompt: And the next one, K8V ?
Completion: label 1

Prompt: Follow-up entry: K16N
Completion: label 1

Prompt: Also, Q19G please.
Completion: label 1

Prompt: Follow-up item: G22D
Completion: label 1

Prompt: Another variant to check: A24Q
Completion: label 1

Prompt: // repeat for A4L and report
Completion: label 0

Prompt: Same thing, different variant: V23G
Completion: label 1

Prompt: How about this variant: K16I
Completion: label 0

Prompt: Similarly, A24I ?
Completion: label 0

Prompt: Note, next up: L15E
Completion: label 1

Prompt: L15K ?
Completion: label 1

Prompt: // query: A4R
Completion: label 1

Prompt: Again, but for A11D
Completion: label 1

Prompt: Next: A13Y
Completion: label 1

Prompt: Please do the same for G5N as well.
Completion: label 1

Prompt: Input K8I
Completion: label 1

Prompt: How about this variant: G7Y
Completion: label 1

Prompt: Moving on to F21V
Completion: label 1

Prompt: Now try A3D .
Completion: label 1

Prompt: Entry V23I please
Completion: label 1

Prompt: Now give it for A24M too.
Completion: label 1

Prompt: Try the variant A11I
Completion: label 0

Prompt: Also check E10K
Completion: label 1

Prompt: Proceed to V23T
Completion: label 1

Prompt: Entry G22V please
Completion: label 1

Prompt: Entry to check: S20K
Completion: label 1

Prompt: Moving on to the next variant: G7M
Completion: label 0

Prompt: How about A11N ?
Completion: label 1

Prompt: Then what about the variant F21L ?
Completion: label 1

Prompt: Next up: R14D
Completion: label 1

Prompt: Try this variant too: A4P
Completion: label 1

Prompt: Repeat for the following variant: G7K
Completion: label 1

Prompt: Please give the result for K8M too.
Completion: label 1

Prompt: Same read-out for S18C ?
Completion: label 0

Prompt: Now consider T2C .
Completion: label 1

Prompt: Check K8Y too.
Completion: label 1

Prompt: Also check R14P
Completion: label 1

Prompt: Next record, please: K16M
Completion: label 0

Prompt: Next variant: T2Q
Completion: label 1

Prompt: // repeat for L15F and report
Completion: label 0

Prompt: Continue with A3E
Completion: label 1

Prompt: S18W ?
Completion: label 0

Prompt: And the next one, G22W ?
Completion: label 0

Prompt: Would you mind doing A24K as well?
Completion: label 1

Prompt: And T2A ?
Completion: label 1

Prompt: Moving on to F21H
Completion: label 1

Prompt: Try this variant next: F21Q
Completion: label 1

Prompt: Next up: R12G
Completion: label 1

Prompt: Same thing, different variant: A11F
Completion: label 0

Prompt: Moving on to the next variant: F21E
Completion: label 1

Prompt: Now give it for A24P too.
Completion: label 1

Prompt: Then A4N ?
Completion: label 1

Prompt: For A11M then?
Completion: label 1

Prompt: Similarly, S18D ?
Completion: label 1

Prompt: Now this one: E1S
Completion: label 1

Attribution: the supplement of paper PMC10567573
